Numbers sourced from the RNAGym collection of RNA variant scans (doi:10.1073/pnas.2313332121).

B1: TPR t1 (parent)
chain: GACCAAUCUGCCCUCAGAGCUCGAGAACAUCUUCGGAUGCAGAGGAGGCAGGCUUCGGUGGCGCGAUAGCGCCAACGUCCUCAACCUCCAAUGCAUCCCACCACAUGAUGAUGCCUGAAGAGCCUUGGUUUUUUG

Variants of: B1
Assay: polymerase ribozyme fitness, log enrichment relative to wild type (log ratio); higher = more active; in vitro selection for triplet polymerase activity
Outcome: y for polymerase ribozyme fitness (log ratio) of at least -3; n for anything lower.

Is reported polymerase ribozyme fitness (log ratio) greater than or equal to -3 here: A29U U109G G122A
y

Is reported polymerase ribozyme fitness (log ratio) greater than or equal to -3 here: C15G C73U G107U G117C
n

Is reported polymerase ribozyme fitness (log ratio) greater than or equal to -3 here: G45U G61U
y

Is reported polymerase ribozyme fitness (log ratio) greater than or equal to -3 here: A43U C49A C89U A90C U133G
y

Is reported polymerase ribozyme fitness (log ratio) greater than or equal to -3 here: A50C G61C U109A
n
